- Tested on: Sebocytes SEBO662 (3D epithelium)
- assay-protocol: Lipid synthesis/accumulation in 3D model culture of Sebocytes (Oil-red-O staining, lipid droplet surface area)
- Assay type: cell-based, human
- condition-set: 1 μM; 14 days incubation; 3D Sebocytes; Oil-red-O lipid droplet surface area
Listed next: entries and their corresponding lipid accumulation, % of the control.
Give your result in % as a bare value.

Sample answers from the record:
* C[C@H](CS)C(=O)N1CCC[C@H]1C(=O)O | 240
* N[C@@H](C[SeH])C(=O)O | 296
* OCCS | 228

Known value: Sebocytes SEBO662 (3D epithelium) lipid accumulation, % of the control of the molecule "O=C(O)CCCCCCCCCCCS" equals 349
